- Test system: NCI-H1755
- experimental.details: relative viability (nuclei count vs DMSO), 5 days (fraction); higher = more cells survive
- measurement.parameters: first compound 0.02 µM
property.label: relative viability
Lab note: jot the number down without any unit.

Req: Look up relative viability for this molecule: CCNC(=O)c1noc(-c2cc(C(C)C)c(O)cc2O)c1-c1ccc(CN2CCOCC2)cc1 [Luminespib] + C[C@@H](Oc1cc(-c2cnn(C3CCNCC3)c2)cnc1N)c1c(Cl)ccc(F)c1Cl [Crizotinib] (partner 1 µM)
Resp: 0.938

Req: Look up relative viability for this molecule: CN1CCN(CCOc2cc(OC3CCOCC3)c3c(Nc4c(Cl)ccc5c4OCO5)ncnc3c2)CC1 [Saracatinib] + COc1cc2c(Oc3ccc(NC(=O)C4(C(=O)Nc5ccc(F)cc5)CC4)cc3F)ccnc2cc1OCCCN1CCOCC1 [Foretinib] (partner 0.25 µM)
Resp: 0.936

Req: Look up relative viability for this molecule: CN1CCN(CCOc2cc(OC3CCOCC3)c3c(Nc4c(Cl)ccc5c4OCO5)ncnc3c2)CC1 [Saracatinib] + CS(=O)(=O)CCNCc1ccc(-c2ccc3ncnc(Nc4ccc(OCc5cccc(F)c5)c(Cl)c4)c3c2)o1 [Lapatinib] (partner 2 µM)
Resp: 1.01

Req: Look up relative viability for this molecule: CCNC(=O)c1noc(-c2cc(C(C)C)c(O)cc2O)c1-c1ccc(CN2CCOCC2)cc1 [Luminespib] + O=C(CCCCCCC(=O)Nc1ccccc1)NO [Vorinostat] (partner 1 µM)
Resp: 0.835
